- assay protocol: Spontaneous hydrolysis in Hepes buffer
- Assay type: physicochemical
- test conditions: 0.1 Hepes, 0.5M NaCl, pH 7.5, 9% Me2SO, 25° C
assay metric: t1/2 for spontaneous hydrolysis (h)
Numbers only, in h.

Example cases with answers are listed next.
mol=N=C(N)SCCCOc1oc(=O)c2cc(NC(=O)Nc3ccccc3)ccc2c1Cl assay_metric="t1/2 for spontaneous hydrolysis" reported_value=2.47
mol=N=C(N)SCCOc1oc(=O)c2cc(NC(=O)Nc3ccccc3)ccc2c1Cl assay_metric="t1/2 for spontaneous hydrolysis" reported_value=1.8
mol=N=C(N)SCCCOc1oc(=O)c2cc(NC(=O)Cc3ccccc3)ccc2c1Cl assay_metric="t1/2 for spontaneous hydrolysis" reported_value=1.02

Each compound below has a recorded value; state its t1/2 for spontaneous hydrolysis.
1. CC(=O)Nc1ccc2c(Cl)c(OCCCSC(=N)N)oc(=O)c2c1
2. N=C(N)SCCCOc1oc(=O)c2cc(NC(=O)NCc3ccccc3)ccc2c1Cl

Solution:
1.13
2.47

Your task in this section: give t1/2 for spontaneous hydrolysis for each listed record.
1. N=C(N)SCCCOc1oc(=O)c2cc(N)ccc2c1Cl
2. N=C(N)SCCCOc1oc(=O)c2cc(NC(=O)CCc3ccccc3)ccc2c1Cl

Solution:
1.5
1.1

###

- measurement target: complement protein D (Homo sapiens)
- Sequence (P00746 26-253): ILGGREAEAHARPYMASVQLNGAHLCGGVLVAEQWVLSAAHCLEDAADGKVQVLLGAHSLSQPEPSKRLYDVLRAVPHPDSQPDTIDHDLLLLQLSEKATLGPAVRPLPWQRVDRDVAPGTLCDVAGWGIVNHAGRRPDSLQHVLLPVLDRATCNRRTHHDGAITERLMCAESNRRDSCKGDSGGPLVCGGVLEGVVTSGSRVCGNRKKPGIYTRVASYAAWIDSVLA
- assay protocol: Inactivation rate of complement protein D
- Type: biochemical
- test conditions: Table II; pH 7.5, 25° C; [I] 0.05 to 1.29 mM; read-out: kobs/[I]
assay metric: log10(kinact/KI) (log10 of the value in M⁻¹ s⁻¹)
// stored as log10 of kinact/KI expressed in M⁻¹ s⁻¹

compound="COc1oc(=O)c2cc(N)ccc2c1Cl [7-amino-3-methoxy-4-chloroisocoumarin, reference compound]" assay_metric=log10(kinact/KI) reported_value=0.11
compound="CCOc1oc(=O)c2ccccc2c1Cl [3-ethoxy-4-chloroisocoumarin, reference compound]" assay_metric=log10(kinact/KI) reported_value=-0.60
compound=COc1oc(=O)c2cc(NC(=N)N)ccc2c1Cl assay_metric=log10(kinact/KI) reported_value=2.40

// input: 5 compounds below; output: log10(kinact/KI) for each
1. N=C(N)Nc1ccc2c(Cl)c(OCCc3ccccc3)oc(=O)c2c1
2. N=C(N)SCCCOc1oc(=O)c2ccccc2c1Cl
3. N=C(N)SCCOc1oc(=O)c2ccccc2c1Cl
4. CCOc1oc(=O)c2cc(NC(=N)N)ccc2c1Cl
5. N=C(N)SCCCOc1oc(=O)c2cc(N)ccc2c1Cl

Solution:
1. 1.96
2. 2.16
3. 1.79
4. 2.29
5. 1.74

The compound listed as O=c1oc(Cl)c(Cl)c2ccccc12 [3,4-dichloroisocoumarin, reference compound] has a reported log10(kinact/KI) of 2.28

###

- measurement target: chymotrypsin (Bos taurus)
- assay protocol: Inactivation of chymotrypsin
- Assay type: biochemical, bovine
- test conditions: pH 7.5; Table XII; 2.5% Me2SO, 25° C; [I] 3.4-70 μM; read-out: kobs/[I]
assay metric: kinact/KI (M⁻¹ s⁻¹)
Answers are plain numbers, in M⁻¹ s⁻¹.

mol=CCCOc1oc(=O)c2cc(NC(=O)CCc3ccccc3)ccc2c1Cl measurement_target="chymotrypsin (Bos taurus)" reported_value=12000
mol=CCCOc1oc(=O)c2cc(NC(=O)OCC)ccc2c1Cl measurement_target="chymotrypsin (Bos taurus)" reported_value=5200
mol=CCCOc1oc(=O)c2cc(NC(=O)Nc3ccccc3)ccc2c1Cl measurement_target="chymotrypsin (Bos taurus)" reported_value=6100

Consider the record given below.
kinact/KI for CCCOc1oc(=O)c2cc(NC(=O)NCC)ccc2c1Cl is 120

###

- measurement target: human lung tryptase
- assay protocol: Inactivation rate of human lung tryptase
- Format: biochemical
- test conditions: Table III; pH 7.5, 25° C; [I] 0.4 to 50 μM
assay metric: kobs/[I]

compound=N=C(N)Nc1ccc2c(Cl)c(OCCc3ccccc3)oc(=O)c2c1 measurement_target="human lung tryptase" reported_value="56,000 M^-1 s^-1"
compound=CCOc1oc(=O)c2cc(NC(=N)N)ccc2c1Cl measurement_target="human lung tryptase" reported_value="61,000 M^-1 s^-1"
compound="O=c1oc(Cl)c(Cl)c2ccccc12 [3,4-dichloroisocoumarin, reference compound]" measurement_target="human lung tryptase" reported_value="185 M⁻¹ s⁻¹"
compound=NCCCOc1oc(=O)c2ccccc2c1Cl measurement_target="human lung tryptase" reported_value="2,000 M^-1 s^-1"
compound=N=C(N)SCCCOc1oc(=O)c2cc(N)ccc2c1Cl measurement_target="human lung tryptase" reported_value="28,000 M^-1 s^-1"

Please give kobs/[I] for each item listed below.
1. COc1oc(=O)c2cc(NC(=N)N)ccc2c1Cl
2. N=C(N)SCCCOc1oc(=O)c2ccccc2c1Cl

Solution:
1. 20,000 M^-1 s^-1
2. 64,000 M^-1 s^-1

###

- measurement target: human factor Xa (Homo sapiens)
- Construct: human factor Xa
- Sequence (P00742 235-488 limits assumed): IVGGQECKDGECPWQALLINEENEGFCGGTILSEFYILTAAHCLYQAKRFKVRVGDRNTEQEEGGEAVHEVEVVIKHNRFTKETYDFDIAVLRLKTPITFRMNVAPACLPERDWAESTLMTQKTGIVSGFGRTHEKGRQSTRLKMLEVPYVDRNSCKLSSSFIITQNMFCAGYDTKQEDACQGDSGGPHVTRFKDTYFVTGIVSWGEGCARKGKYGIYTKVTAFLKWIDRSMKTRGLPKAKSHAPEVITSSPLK
- Sequence (P00742 41-179 partner limits assumed): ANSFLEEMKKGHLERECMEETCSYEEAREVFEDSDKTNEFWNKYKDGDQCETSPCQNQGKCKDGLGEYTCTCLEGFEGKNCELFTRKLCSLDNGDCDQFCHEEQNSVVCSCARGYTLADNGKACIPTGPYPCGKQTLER
- assay protocol: Inactivation rate of human factor Xa
- Type: biochemical
- test conditions: Table VIII; pH 7.5, 25° C; [I] 3.6-44 μM; read-out: kobs/[I]
assay metric: kinact/KI
Include the unit right after the number.

Look over these answered cases.
compound="N=C(N)SCCOc1oc(=O)c2cc(NC(=O)[C@H](N)Cc3ccccc3)ccc2c1Cl [D-Phe--NH-CiTEtOIC]" measurement_target="human factor Xa (Homo sapiens)" assay_metric=kinact/KI reported_value="3070 M⁻¹ s⁻¹"
compound="N=C(N)SCCOc1oc(=O)c2cc(NC(=O)[C@@H](N)Cc3ccccc3)ccc2c1Cl [L-Phe--NH-CiTEtOIC]" measurement_target="human factor Xa (Homo sapiens)" assay_metric=kinact/KI reported_value="3770 M⁻¹ s⁻¹"

For each of the compounds below, note its kinact/KI.
1. C[C@H](N)C(=O)N[C@@H](C)C(=O)Nc1ccc2c(Cl)c(OCCSC(=N)N)oc(=O)c2c1 [Ala--Ala--NH-CiTEtOIC]
2. N=C(N)SCCOc1oc(=O)c2cc(NC(=O)Cc3ccccc3)ccc2c1Cl [PhCH2 CONH-CiTEtOIC]
3. N=C(N)SCCOc1oc(=O)c2cc(NC(=O)NCc3ccccc3)ccc2c1Cl [PhCH2 NHCONH-CiTEtOIC]
4. N=C(N)SCCCOc1oc(=O)c2cc(NC(=O)Nc3ccccc3)ccc2c1Cl [PhNHCONH-CiTPrOIC]
5. N=C(N)SCCOc1oc(=O)c2cc(NC(=O)Nc3ccccc3)ccc2c1Cl [PhNHCONH-CiTEtOIC]
6. CC(C)(C)OC(=O)N[C@@H](Cc1ccccc1)C(=O)Nc1ccc2c(Cl)c(OCCSC(=N)N)oc(=O)c2c1 [Boc-L-Phe--NH-CiTEtOIC]

Solution:
["1490 M⁻¹ s⁻¹", "3630 M⁻¹ s⁻¹", "2340 M⁻¹ s⁻¹", "50 M⁻¹ s⁻¹", "4740 M⁻¹ s⁻¹", "1620 M⁻¹ s⁻¹"]

###

Field: kinact/KI. Provide a value for each of the compounds that follow.
- measurement target: rat skin tryptase (Rattus norvegicus)
- Construct: from tissue; host or cells: rat skin
- Sequence (P27435 29-273): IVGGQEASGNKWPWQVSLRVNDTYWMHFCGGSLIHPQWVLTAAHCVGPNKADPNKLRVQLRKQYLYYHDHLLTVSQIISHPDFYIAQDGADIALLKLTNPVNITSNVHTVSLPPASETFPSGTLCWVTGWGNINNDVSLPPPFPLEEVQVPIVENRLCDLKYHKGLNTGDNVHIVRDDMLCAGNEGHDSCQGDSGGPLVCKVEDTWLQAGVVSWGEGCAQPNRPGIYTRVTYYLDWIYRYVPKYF
- assay protocol: Inactivation rate of rat skin tryptase
- Type: biochemical
- test conditions: pH 7.5, Table III; 25 mM phosphate, pH 7.5, 25° C; [I] 0.4 to 50 μM; read-out: kobs/[I]
Give bare numbers, in M⁻¹ s⁻¹.

Worked cases, kinact/KI given:
compound=COc1oc(=O)c2cc(NC(=N)N)ccc2c1Cl reported_value=52000
compound=NCCCOc1oc(=O)c2ccccc2c1Cl reported_value=8370
compound=N=C(N)SCCCOc1oc(=O)c2ccccc2c1Cl reported_value=53000
compound=N=C(N)Nc1ccc2c(Cl)c(OCCc3ccccc3)oc(=O)c2c1 reported_value=86000

Fill in kinact/KI for each of the 3 compounds listed.
1. N=C(N)SCCCOc1oc(=O)c2cc(N)ccc2c1Cl
2. O=c1oc(Cl)c(Cl)c2ccccc12 [3,4-dichloroisocoumarin, reference compound]
3. CCOc1oc(=O)c2cc(NC(=N)N)ccc2c1Cl

Solution:
1: 63000; 2: 610; 3: 82000

###

Give kobs/[I] for every item shown.
- measurement target: human lung tryptase
- assay protocol: Inactivation rate of human lung tryptase
- Type: biochemical
- test conditions: Table IX; pH 7.5, 25° C; [I] 0.42-0.47 μM

Example results:
mol=N=C(N)SCCOc1oc(=O)c2cc(NC(=O)[C@H](N)Cc3ccccc3)ccc2c1Cl measurement_target="human lung tryptase" reported_value="60,000 M^-1 s^-1"
mol=N=C(N)SCCCOc1oc(=O)c2cc(NC(=O)Nc3ccccc3)ccc2c1Cl measurement_target="human lung tryptase" reported_value="140,000 M^-1 s^-1"
mol=N=C(N)SCCCOc1oc(=O)c2cc(NC(=O)NCc3ccccc3)ccc2c1Cl measurement_target="human lung tryptase" reported_value="190,000 M^-1 s^-1"
mol=N=C(N)SCCCOc1oc(=O)c2cc(N)ccc2c1Cl measurement_target="human lung tryptase" reported_value="19,000 M^-1 s^-1"
mol=N=C(N)SCCOc1oc(=O)c2cc(NC(=O)[C@@H](N)Cc3ccccc3)ccc2c1Cl measurement_target="human lung tryptase" reported_value="260,000 M^-1 s^-1"

Quick request: kobs/[I] for each listed item, please.
1. N=C(N)SCCCOc1oc(=O)c2cc(NC(=O)Cc3ccccc3)ccc2c1Cl
2. N=C(N)SCCCOc1oc(=O)c2cc(NC(=O)CCc3ccccc3)ccc2c1Cl

Solution:
["140,000 M^-1 s^-1", "180,000 M^-1 s^-1"]

Origin of measurements: patent US5324648A
